Biological target: T1, Recombinant human TREM2 (human, UniProt Q9NZC2 19-174)
T1 construct: Triggering receptor expressed on myeloid cells 2 (TREM2), human, recombinant; As I recall, this catalogue item is the extracellular domain with a C-terminal His tag; also called triggering receptor expressed on myeloid cells 2; hTREM2; source: bought: Sino Biological Inc. (#11084-H08H)
T1 sequence (looked up): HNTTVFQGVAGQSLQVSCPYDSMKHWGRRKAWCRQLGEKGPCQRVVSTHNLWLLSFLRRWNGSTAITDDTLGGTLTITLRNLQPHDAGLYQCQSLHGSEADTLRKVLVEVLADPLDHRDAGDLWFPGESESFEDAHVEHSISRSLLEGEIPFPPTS
Assay: ELISA; competition: human TREM2 (40 nM) coated; 6 nM ApoE ε3 with 0-6 μM ApoE-mim149 or scrambled peptide, 1 h at RT; bound full-length ApoE detected with polyclonal anti-ApoE; one site-fit Ki
Details: both partners purified
PARAMETER: pKi
Here pKi is given on a logarithmic scale as minus log10 of the concentration in mol/L.

Find the recorded pKi belonging to Ac-TEELRVRLASHLRKLRKRLL-NH2 (also called ApoE-mim149; source: synthetic peptide, bought: GenScript) [ApoE-mimetic peptide corresponding to amino acids 130–149] and report it.
6.32
